# CC50 at 72 h values compiled below
Experiment: Cytotoxicity against human HEL cells assessed as reduction in cell proliferation incubated for 3 days by Coulter counter method
Type: cell-based

Use these answered entries as a reference point.
| MOLECULE | CC50 at 72 h |
| --- | --- |
| O=c1[nH]c(=O)n([C@H]2C[C@H](O)[C@@H](CO)O2)cc1/C=C/Br | > 300 µM |
| CCCCCOC(=O)[C@@H](NP(=O)(CO[C@@H](CF)COc1nccc(N)n1)Oc1ccccc1)C(C)C (mixture of isomers) | 79.3 µM |
| Nc1ccnc(OC[C@H](CF)OCP(=O)(O)O)n1 | > 100 µM |
| Nc1nc2c(ncn2COCCO)c(=O)[nH]1 | > 444 µM |
| CCCCCOC(=O)[C@@H](NP1(=O)CO[C@H](COc2nccc(N)n2)CO1)C(C)C (mixture of isomers) | > 100 µM |

Quick check: CC50 at 72 h of CCCCCOC(=O)[C@@H](NP(=O)(CO[C@@H](CF)COc1ncc(F)c(N)n1)Oc1ccccc1)C(C)C (mixture of isomers) ?
> 100 µM

Quick check: CC50 at 72 h of CCCCCOC(=O)C[C@H](NP(=O)(CO[C@@H](CF)COc1nccc(N)n1)Oc1ccccc1)C(=O)OCCCCC (mixture of isomers) ?
51.8 µM

Quick check: CC50 at 72 h of Nc1ccn(C[C@@H](CO)OCP(=O)(O)O)c(=O)n1 ?
> 317 µM

Quick check: CC50 at 72 h of CCCCCOC(=O)C[C@H](NP(=O)(CO[C@H](CF)COc1nccc(N)n1)Oc1ccccc1)C(=O)OCCCCC (mixture of isomers) ?
> 100 µM

Quick check: CC50 at 72 h of Nc1ccnc(OC[C@@H](CF)OCP(=O)(O)O)n1 (mixture of isomers) ?
> 100 µM

Quick check: CC50 at 72 h of Nc1nc2c(ncn2COC(CO)CO)c(=O)[nH]1 ?
> 394 µM

====

# selectivity ratio values compiled below
Test: Selectivity index, ratio of CC50 for human HEL cells to EC50 for antiviral activity against thymidine kinase positive Varicella zoster virus OKA infected in human HEL cells
Type: toxicity, cell-based
Conditions: read-out: Ratio CC50/EC50

| COMPOUND | ENDPOINT_RESULT |
| --- | --- |
| CCCCCOC(=O)[C@@H](NP(=O)(CO[C@@H](CF)COc1nccc(N)n1)Oc1ccccc1)C(C)C (mixture of isomers) | 220 to 818 |

Quick check: selectivity ratio of CCCCCOC(=O)C[C@H](NP(=O)(CO[C@@H](CF)COc1nccc(N)n1)Oc1ccccc1)C(=O)OCCCCC (mixture of isomers) ?
96 to 551

====

Test system: Cytomegalovirus
Assay: Antiviral activity against Cytomegalovirus Davis infected in human HEL cells assessed as reduction in virus-induced cytopathogenicity measured after 6 to 7 days
Type: functional, organism-based
Conditions: Human betaherpesvirus 5, Davis
Label key: Met means EC50 under 4 µM; Not met means EC50 of 4 µM or more.

| MOLECULE | MEASURED_ON | ASSIGNED_CATEGORY |
| --- | --- | --- |
| CCCCCOC(=O)[C@@H](NP(=O)(CO[C@H](C)COc1nccc(N)n1)Oc1ccccc1)C(C)C (mixture of isomers) | Cytomegalovirus | Not met |
| CCCCCOC(=O)C[C@H](NP(=O)(CO[C@H](CF)COc1nccc(N)n1)Oc1ccccc1)C(=O)OCCCCC (mixture of isomers) | Cytomegalovirus | Not met |
| CCCCCOC(=O)[C@@H](NP(=O)(CO[C@H](CF)COc1ncc(F)c(N)n1)Oc1ccccc1)C(C)C (mixture of isomers) | Cytomegalovirus | Not met |
| Nc1ccnc(OC[C@H](CF)OCP(=O)(O)O)n1 | Cytomegalovirus | Met |

Could you now consider this next molecule?
API: query returns whether the molecule falls strictly under 4 µM in EC50. Query: CCCCCOC(=O)[C@@H](NP(=O)(CO[C@H](C)COc1ncc(F)c(N)n1)Oc1ccccc1)C(C)C (mixture of isomers)
Not met

====

# MCC at 72 h values compiled below
Assay: Cytotoxicity against human HEL cells assessed as minimum cytotoxic concentration for change in cellular morphology incubated for 3 days by microscopic analysis
Assay type: cell-based

Use these answered entries as a reference point.
| MOLECULE | MCC at 72 h |
| --- | --- |
| CCCCCOC(=O)C[C@H](NP(=O)(CO[C@H](CF)COc1nccc(N)n1)Oc1ccccc1)C(=O)OCCCCC (mixture of isomers) | > 100 µM |
| Nc1ccn(C[C@@H](CO)OCP(=O)(O)O)c(=O)n1 | > 317 µM |
| CCCCCOC(=O)[C@@H](NP(=O)(CO[C@H](CF)COc1nccc(N)n1)Oc1ccccc1)C(C)C (mixture of isomers) | > 100 µM |
| Nc1nc2c(ncn2COCCO)c(=O)[nH]1 | > 444 µM |

# next molecule below
Quick check: MCC at 72 h of Nc1ccnc(OC[C@H](CF)OCP(=O)(O)O)n1 ?
> 100 µM

====

System: Human alphaherpesvirus 3
Assay: Antiviral activity against thymidine kinase positive Varicella zoster virus OKA infected in human HEL cells assessed as reduction in plaque formation measured after 5 days
Assay type: functional, organism-based
Conditions: Human alphaherpesvirus 3, OKA, 120 h
PROPERTY: EC50

Use these answered entries as a reference point.
| MOLECULE | MEASURED_ON | EC50 |
| --- | --- | --- |
| CCCCCOC(=O)[C@@H](NP1(=O)CO[C@@H](COc2nccc(N)n2)CO1)C(C)C (mixture of isomers) | Human alphaherpesvirus 3 | > 100 µM |
| Nc1ccnc(OC[C@@H](CF)OCP(=O)(O)O)n1 (mixture of isomers) | Human alphaherpesvirus 3 | > 100 µM |
| CCCCCOC(=O)[C@@H](NP(=O)(CO[C@H](CF)COc1ncc(F)c(N)n1)Oc1ccccc1)C(C)C (mixture of isomers) | Human alphaherpesvirus 3 | > 100 µM |

# next molecule below
Quick check: EC50 of CCCCCOC(=O)[C@@H](NP1(=O)CO[C@@H](COc2ncc(F)c(N)n2)CO1)C(C)C (mixture of isomers) ?
> 100 µM

====

Test system: Cytomegalovirus
Test: Antiviral activity against Cytomegalovirus AD169 infected in human HEL cells assessed as reduction in virus-induced cytopathogenicity measured after 6 to 7 days
Format: functional, organism-based
Conditions: Human betaherpesvirus 5, AD169, HEL
PROPERTY: pEC50
Reminder that pEC50 means the negative base-10 logarithm of the concentration expressed in mol/L.

| COMPOUND | pEC50 |
| --- | --- |
| Nc1ccn(C[C@@H](CO)OCP(=O)(O)O)c(=O)n1 | 5.76 |

# next compound below
Lookup: pEC50 / Cytomegalovirus / CCCCCOC(=O)[C@@H](NP1(=O)CO[C@H](COc2nccc(N)n2)CO1)C(C)C (mixture of isomers)
4.85

====

Test system: Cytomegalovirus
Experiment: Antiviral activity against Cytomegalovirus Davis infected in human HEL cells assessed as reduction in virus-induced cytopathogenicity measured after 6 to 7 days
Format: functional, organism-based
Settings: Human betaherpesvirus 5, Davis
# pEC50 values compiled below
Reminder that pEC50 means the negative base-10 logarithm of the concentration expressed in mol/L.

Use these answered entries as a reference point.
| COMPOUND | PROPERTY | ENDPOINT_RESULT |
| --- | --- | --- |
| CCCCCOC(=O)C[C@H](NP(=O)(CO[C@@H](CF)COc1nccc(N)n1)Oc1ccccc1)C(=O)OCCCCC (mixture of isomers) | pEC50 | 7.03 |
| CCCCCOC(=O)[C@@H](NP(=O)(CO[C@@H](CF)COc1nccc(N)n1)Oc1ccccc1)C(C)C (mixture of isomers) | pEC50 | 7.01 |
| CCCCCOC(=O)[C@@H](NP(=O)(CO[C@H](CF)COc1nccc(N)n1)Oc1ccccc1)C(C)C (mixture of isomers) | pEC50 | 5.12 |

Quick check: pEC50 of CCCCCOC(=O)[C@@H](NP1(=O)CO[C@H](COc2nccc(N)n2)CO1)C(C)C (mixture of isomers) ?
5.32

Quick check: pEC50 of Nc1ccn(C[C@@H](CO)OCP(=O)(O)O)c(=O)n1 ?
6.03

Quick check: pEC50 of CCCCCOC(=O)[C@@H](NP(=O)(CO[C@@H](CF)COc1ncc(F)c(N)n1)Oc1ccccc1)C(C)C (mixture of isomers) ?
5.33

Quick check: pEC50 of Nc1nc2c(ncn2COC(CO)CO)c(=O)[nH]1 ?
5.35

====

System: Cytomegalovirus
Assay: Antiviral activity against Cytomegalovirus AD169 infected in human HEL cells assessed as reduction in virus-induced cytopathogenicity measured after 6 to 7 days
Assay type: functional, organism-based
Conditions: Human betaherpesvirus 5, AD169, HEL
PROPERTY: EC50

Use these answered entries as a reference point.
| MOLECULE | EC50 |
| --- | --- |
| CCCCCOC(=O)[C@@H](NP(=O)(CO[C@H](C)COc1nccc(N)n1)Oc1ccccc1)C(C)C (mixture of isomers) | > 100 µM |
| CCCCOC(=O)[C@@H](NP(=O)(COC(C)COc1nccc(N)n1)Oc1ccccc1)C(C)C (stereo partly drawn) | > 100 µM |

# next molecule below
Quick check: EC50 of CCCCCOC(=O)[C@@H](NP1(=O)CO[C@H](COc2ncc(F)c(N)n2)CO1)C(C)C (mixture of isomers) ?
> 100 µM
